The measured values listed here are drawn from PubChem BioAssay.

tested on: Human papillomavirus type 1a E7 protein (residues 1-88); experiment: HPV1a E7 small-molecule binders, primary screen, biochemical, small-molecule microarray, residues 1-88, 635 nm (AID 1129); conditions: small-molecule microarray binding, fluorescence 635 nm; higher = more signal
Kindly return rule met if reported composite z-score is no lower than 0.4; return rule not met if it is lower.

Previously resolved entries follow.
Cc1ccc(S[C@]2(C(=O)NCCCN(C)C)CC(=O)N(Cc3cc(C(F)(F)F)cc(C(F)(F)F)c3)[C@@H]2c2ccc(CO)cc2I)cc1 ... rule not met
C=C(CCCC)/C(=C/C[C@H](OC(C)=O)c1ccccc1OCCO)c1cc(C(=O)OC)ccc1OC ... rule not met
COCCOC(=O)N1C(=O)[C@@]2(c3cc(C#CCC(C(=O)OC)C(=O)OC)ccc31)[C@H](C(=O)N1CCN(c3ncccn3)CC1)[C@H]1C(=O)O[C@H](c3ccccc3)[C@H](c3ccccc3)N1[C@@H]2c1ccccc1OCCO ... rule met
C[C@H]1NC(=O)[C@@]23C(=O)N[C@@H](Cc4ccccc4)C2[C@H](C)[C@@]2(C)O[C@H]2C3/C=C/C/C=C\CNC(=O)[C@@H]2CCCN2C1=O (stereo partly drawn) ... rule not met

In plain terms: is recorded composite z-score at least 0.4 for COC(=O)[C@@]1(Cc2ccc(OC)cc2)[C@H]2c3cc(C(=O)N4CCCC4)n(Cc4ccc(C)c(F)c4F)c3C[C@H]2CN1C(=O)c1ccccc1 ? rule met

In plain terms: is recorded composite z-score at least 0.4 for C=CCOC(=O)[C@@H]1[C@H]2C(=O)O[C@H](c3ccccc3)[C@H](c3ccccc3)N2[C@H](c2ccc(OCCOC(=O)[C@H]3C[C@H]4C(=O)N5CCC[C@H]5C(=O)N4[C@H]3c3ccc(O)cc3)cc2)[C@@]12C(=O)Nc1ccc(I)cc12 ? rule met

Confirm if composite z-score reported for the compound C=C[C@H](CO[Si](CC)(CC)CC)N(Cc1ccc(OC(C)=O)c(OC)c1)S(=O)(=O)c1ccc(Br)cc1 is 0.4 or above. rule met

Reported composite z-score reaches at least 0.4 for CCOC(=O)C[C@H]1[C@H](OC(=O)c2ccc(C(=O)c3ccccc3)cc2)[C@@H](NC(=O)c2ccccc2)c2cc(OCCCO)ccc2N1C(=O)Cc1ccc(OC)cc1 ? rule not met

Say whether COC(=O)C(CC#Cc1ccc2c(c1)[C@]1(C(=O)N2)[C@H](c2ccc(OCCO)cc2)N2[C@H](c3ccccc3)[C@H](c3ccccc3)OC(=O)[C@H]2[C@@H]1C(=O)N1CCc2cc(OC)c(OC)cc2C1)C(=O)OC shows composite z-score of 0.4 or more. rule met

====

assay: basal MM1S mitochondrial membrane potential changes, profiling panel, cell-based, JC-1 fluorescence, 24 h, 100 nL compound (AID 1170); settings: higher = more signal; further: test concentration not given here
Each record's class is read off its z-score using these ranges: c1 = under -0.9, c2 = from -0.9 up to -0.1, c3 = -0.1 and over

Solved entries:
C=C(C(=O)CC[C@@H](OC(=O)c1cccnc1)c1ccccc1OCCO)C(C)C ... c1
C=CC[C@@]1(C(=O)NCCN2CCOCC2)N=C(c2ccc(OCCCO)cc2)O[C@@H]1c1ccccc1N=[N+]=[N-] ... c2
C=CCNC(=O)[C@@H]1[C@H]2C(=O)O[C@H](c3ccccc3)[C@H](c3ccccc3)N2[C@H](c2ccc(O)cc2)[C@@]12C(=O)N(C(=O)OCCOC)c1ccc(C#CCNC(N)=O)cc12 ... c3
CCCC[C@H]1OB(O)C[C@H]2C1=C(COC)Cn1c(=O)n(-c3ccccc3)c(=O)n12 ... c2

Please classify: [N-]=[N+]=Nc1ccccc1[C@H]1OC(c2ccc(OCCCO)cc2)=N[C@@]1(CCS(=O)(=O)c1ccccc1)C(=O)NCC(O)CO (stereo partly drawn) c3

Class for COc1cc2c(cc1OC)CN(C(=O)[C@@H]1[C@H]3C(=O)O[C@H](c4ccccc4)[C@H](c4ccccc4)N3[C@H](c3ccccc3OCCO)[C@@]13C(=O)Nc1ccc(C#CCCO)cc13)CC2 ? c2

Assign a bin to CNS(=O)(=O)c1ccc(C)cc1 c3

Please report the category associated with C=C[C@H](CO[Si](CC)(CC)CC)N(Cc1ccc(OC(C)=O)c(OC)c1)S(=O)(=O)c1ccc(Br)cc1 , nothing else. c1

For this compound, which bin applies? CCCCCN1CC=CC23O[C@@H]4/C=C\CCC(C)OC(=O)C4[C@H]2C(=O)N(C(C)CO)[C@@H]3C1=O (stereo partly drawn) c2

State the class of the compound shown: CC[C@@H]1C=C(C(=O)O)[C@H](c2ccc(Br)cc2)N1S(=O)(=O)c1ccc(C)cc1 c2

Lab log: CC(C)C(O)C1C=CC2C(=O)NC(=O)C2N1Nc1ccc(Cl)cc1Cl (stereo not drawn) — assign z-score category c2

State the band of COC(=O)[C@@]1(Cc2ccc(F)cc2)[C@H]2c3cc(C(=O)N4CCCC4)n(Cc4ccc(S(C)(=O)=O)cc4)c3C[C@H]2CN1C(=O)c1ccccc1 c2

====

assay: yeast growth modulation, basal conditions, primary screen, YJM789 clinical isolate, OD600, 24 h (AID 1089);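 further: growth of clinical yeast isolate S. cerevisiae YJM 789 seeded 1000 cells per well; test concentration not given here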; details: S. cerevisiae YJM789 growth, higher = more signal, called active from +8 up or from −8 down
Output Yes for z-score not less than 0.1; output No otherwise.

CC1(C)C2C=C(C(O)C3C=CC4C(=O)NC(=O)C4N3Nc3ccc(Cl)cc3Cl)C[C@@H]1C2 (stereo partly drawn) ... No
CC(=O)n1cc(C(O)C2C=CC3C(=O)N(c4ccccc4)C(=O)C3N2Nc2ccc([N+](=O)[O-])cc2)c2ccccc21 (stereo not drawn) ... No
COCCCNC(=O)[C@]1(CCC(=O)OC(C)(C)C)N=C(c2ccc(OCCCO)cc2)O[C@@H]1c1ccccc1CN=[N+]=[N-] ... Yes
O=C1C2C=CC(C(O)c3cc(C(F)(F)F)cc(C(F)(F)F)c3)N(n3cnnc3)C2C(=O)N1Cc1ccccc1 (stereo not drawn) ... No
CCOC(=O)C[C@H]1[C@H](OC(=O)c2cc3ccccc3oc2=O)[C@@H](NC(=O)c2ccccc2)c2cc(OCCCO)ccc2N1C(=O)c1ccc2ccccc2n1 ... Yes
COC(=O)[C@@]1(Cc2ccc(F)cc2)[C@H]2c3cc(C(=O)N(C)C)n(Cc4ccc(Cl)c(C(F)(F)F)c4)c3C[C@H]2CN1C(=O)c1ccccc1 ... Yes

Could you please find out whether O=C1NC(=O)C2C1C=CC(C(O)c1cc(C(F)(F)F)cc(C(F)(F)F)c1)N2Nc1ccccn1 (stereo not drawn) has z-score that meets 0.1 or exceeds it? Yes

Does the reported z-score for O=C1OCCC/C=C\[C@H]2OC34C=CCN(Cc5ccccc5)C(=O)[C@H]3N(CCCO)C(=O)[C@@H]4C12 (stereo partly drawn) fall at or above the 0.1 mark? Yes

====

molecular target: Torsin-1A (Homo sapiens); assay: torsin A binders from cell lysate, primary screen, small-molecule microarray, wild-type, 635/667 nm (AID 1149); conditions: COS7 hTOR1A-WT lysate, 635 nm fluorescence, higher = more signal
composite z-score values for the molecules below.
Please respond with just the number, no unit label.

Consider the worked cases shown below.
CC1(C)[C@@H]2CC(C(O)C3C=CC4C(=O)N(Cc5ccccc5)C(=O)C4N3n3cnnc3)=C[C@H]1C2 (some centres undefined) ... 1.49
O=C1OCCC/C=C\[C@H]2OC34C=CCN(Cc5ccccc5)C(=O)[C@H]3N(CCCO)C(=O)[C@@H]4C12 (some centres undefined) ... -1.14
NC(=O)NCC#Cc1ccc2c(c1)[C@]1(C(=O)N2)[C@H](c2ccc(O)cc2)N2[C@H](c3ccccc3)[C@H](c3ccccc3)OC(=O)[C@H]2[C@@H]1C(=O)O ... -1.13

Item: COC(=O)C[C@H]1O[C@]2(C(=O)N(C)c3ccccc32)[C@@H](C)[C@@H]1[Si](C)(C)F Test system: Torsin-1A (Homo sapiens) Read-out: composite z-score Value: ? 0.142

Please provide the recorded composite z-score for CC(C)C(O)C1C=CC2C(=O)N(c3ccccc3)C(=O)C2N1Nc1ccc([N+](=O)[O-])cc1 (centres undefined) , tested on Torsin-1A (Homo sapiens). 0.0373

What measured composite z-score is associated with C=CCOC(=O)[C@H]1[C@@H]2C(=O)O[C@@H](c3ccccc3)[C@@H](c3ccccc3)N2[C@@H](c2ccc(OCCOC(=O)[C@H]3C[C@H]4C(=O)N[C@@H](CCCCN(C)C)C(=O)N4[C@H]3c3ccc(O)cc3)cc2)[C@]12C(=O)Nc1ccc(I)cc12 on Torsin-1A (Homo sapiens)? 1.94

Request body: readout composite z-score, system Torsin-1A (Homo sapiens), query O=C1C2C=CC(C(O)CCc3ccccc3)N(Nc3ccccc3F)C2C(=O)N1c1ccccc1 (centres undefined) . Return the value. 0.204

Lookup: composite z-score / Torsin-1A (Homo sapiens) / [N-]=[N+]=NCc1ccccc1[C@@H]1OC(c2ccc(OCCCO)cc2)=N[C@]1(Cc1ccccc1)C(=O)NCC(O)CO (some centres undefined) 0.281

Under Torsin-1A (Homo sapiens): composite z-score value of COC(=O)[C@@]1(CCS(=O)(=O)c2ccccc2)N=C(c2ccc(OCCCO)cc2)O[C@H]1c1ccccc1CN=[N+]=[N-] ? 0.252
